Target: AhR (Cavia porcellus, UniProt Q6J287)
Construct: cells that were stably transfected with a luciferase reporter gene; endogenous in cells; host or cells: G16L7.5c1 (guinea pig)
Sequence (Q6J287 1-846): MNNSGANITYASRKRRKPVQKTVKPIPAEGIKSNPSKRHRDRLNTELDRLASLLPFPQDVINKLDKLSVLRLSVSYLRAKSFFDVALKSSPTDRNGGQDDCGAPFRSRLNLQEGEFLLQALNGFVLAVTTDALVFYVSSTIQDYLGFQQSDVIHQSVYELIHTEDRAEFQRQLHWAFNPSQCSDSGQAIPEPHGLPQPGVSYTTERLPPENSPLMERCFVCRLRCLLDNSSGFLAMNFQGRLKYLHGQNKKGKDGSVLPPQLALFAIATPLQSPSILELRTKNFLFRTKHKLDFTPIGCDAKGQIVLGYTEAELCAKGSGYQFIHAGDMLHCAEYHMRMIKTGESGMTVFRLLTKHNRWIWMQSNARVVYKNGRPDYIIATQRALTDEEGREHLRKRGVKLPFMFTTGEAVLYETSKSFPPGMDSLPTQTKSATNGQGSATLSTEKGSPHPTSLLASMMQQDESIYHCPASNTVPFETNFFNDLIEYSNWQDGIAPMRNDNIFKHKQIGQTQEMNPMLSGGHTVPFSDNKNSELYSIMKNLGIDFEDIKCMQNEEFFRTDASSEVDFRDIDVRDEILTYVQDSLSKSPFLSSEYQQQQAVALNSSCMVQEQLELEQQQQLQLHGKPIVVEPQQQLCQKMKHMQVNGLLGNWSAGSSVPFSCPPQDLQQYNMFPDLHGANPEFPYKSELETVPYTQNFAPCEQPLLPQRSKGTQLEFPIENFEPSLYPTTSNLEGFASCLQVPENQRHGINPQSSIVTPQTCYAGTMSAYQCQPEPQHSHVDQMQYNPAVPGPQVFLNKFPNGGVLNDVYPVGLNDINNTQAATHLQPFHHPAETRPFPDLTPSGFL
Experiment: AhR induction, luciferase reporter gene (CALUX), guinea pig G16L7.5c1 cells
Type: cell-based
Settings: 6 h incubation
Metric: EC50 (nM)
Please respond with the number in nM and leave the unit unwritten.

Reference set (5 entries):
{"Compound": "Clc1cc2c(cc1Cl)Oc1cc(Cl)c(Cl)cc1O2 [TCDD, reference compound]", "Obs Value": 0.1}
{"Compound": "OCc1c2[nH]c3ccccc3c2cc2[nH]c3ccccc3c12 [Compound 4, 6-Hydroxymethylindolo[3,2-b]carbazole]", "Obs Value": 5.77}
{"Compound": "O=Cc1c2[nH]c3ccccc3c2cc2[nH]c3ccccc3c12 [Compound 1, 6-Formylindolo[3,2-b]carbazole]", "Obs Value": 0.577}
{"Compound": "Cc1c2[nH]c3ccccc3c2cc2[nH]c3ccccc3c12 [Compound 3, 6-methylindolo[3,2-b]carbazole]", "Obs Value": 0.0913}
{"Compound": "c1ccc2c(c1)[nH]c1cc3c(cc12)[nH]c1ccccc13 [Compound 2, indolo[3,2-b]carbazole]", "Obs Value": 0.174}

Task: Would you kindly share the measured EC50 for Cc1c2[nH]c3ccccc3c2c(Br)c2[nH]c3ccccc3c12 [Compound 5, 6-Methyl-12-bromoindolo[3,2-b]carbazole] ?
Result: 0.0993
